The reported numbers originate from ChEMBL document CHEMBL1153420.

Reported Ki for target or system Muscarinic acetylcholine receptor M2 (Homo sapiens, UniProt P08172), by entry.
Result Type: Ki (nM)

{"Compound": "OC(c1ccccc1)(c1ccccc1)C12CC[N+](CCCOc3ccccc3)(CC1)CC2.[Br-]", "Result Type": "Ki", "Result Units": "nM", "Assay Value": 0.94}
{"Compound": "OC(c1ccccc1)(c1ccccc1)C12CC[N+](CCOCc3ccccc3)(CC1)CC2.[Br-] [UMECLIDINIUM BROMIDE]", "Result Type": "Ki", "Result Units": "nM", "Assay Value": 0.15}

----------
Assay: Clearance in rat plasma at 3.5 mg/kg, iv
Type: ADME, organism-based
Parameters: dose 3.5 mg/kg, route intravenous
Result Type: clearance

{"Test Smiles": "OC(c1ccccc1)(c1ccccc1)C12CC[N+](CCCOc3ccccc3)(CC1)CC2.[Br-]", "Assay Value": "37 mL/min/kg"}

----------
Molecular target: UniProt:P20309
Assay: Antagonist activity at human cloned muscarinic M3 receptor expressed in CHO cells assessed as inhibition of acetylcholine-induced calcium mobilization by FLIPR assay
Result Type: IC50 (nM)

{"Compound": "Cc1ccc(C(O)(c2ccc(C)cc2)C23CC[N+](CCOCc4ccccc4)(CC2)CC3)cc1", "Target Or System": "UniProt:P20309", "Result Units": "nM", "Relation Operator": "=", "Assay Value": 12}
{"Compound": "OC(c1ccccc1)(c1ccccc1)C12CC[N+](CCOc3ccccc3)(CC1)CC2", "Target Or System": "UniProt:P20309", "Result Units": "nM", "Relation Operator": "<", "Assay Value": 10}
{"Compound": "OC(c1ccccc1)(c1ccccc1)C1C[N+]2(CCc3ccccc3)CCC1CC2 (stereo not given)", "Target Or System": "UniProt:P20309", "Result Units": "nM", "Relation Operator": "=", "Assay Value": 2820}
{"Compound": "OC(c1ccccc1)(c1ccccc1)C12CC[N+](CC3CC3)(CC1)CC2", "Target Or System": "UniProt:P20309", "Result Units": "nM", "Relation Operator": "=", "Assay Value": 1960}
{"Compound": "Cc1ccc(COCC[N+]23CCC(C(O)(c4ccccc4)c4ccccc4)(CC2)CC3)cc1", "Target Or System": "UniProt:P20309", "Result Units": "nM", "Relation Operator": "<", "Assay Value": 10}
{"Compound": "CCC[N+]12CCC(C(O)(c3ccccc3)c3ccccc3)(CC1)CC2", "Target Or System": "UniProt:P20309", "Result Units": "nM", "Relation Operator": "=", "Assay Value": 208}
{"Compound": "OC(c1ccccc1)(c1ccccc1)C12CC[N+](CCc3ccccc3)(CC1)CC2", "Target Or System": "UniProt:P20309", "Result Units": "nM", "Relation Operator": "=", "Assay Value": 87}
{"Compound": "COc1ccc(C(O)(c2ccc(OC)cc2)C23CC[N+](CCOCc4ccccc4)(CC2)CC3)cc1", "Target Or System": "UniProt:P20309", "Result Units": "nM", "Relation Operator": "=", "Assay Value": 36}
{"Compound": "OC(c1ccccc1)(c1ccccc1)C12CC[N+](CCOCc3cccc(Br)c3)(CC1)CC2", "Target Or System": "UniProt:P20309", "Result Units": "nM", "Relation Operator": "<", "Assay Value": 10}
{"Compound": "OC(c1ccccc1)(c1ccccc1)C12CC[N+](CCCOc3ccccc3)(CC1)CC2.[Br-]", "Target Or System": "UniProt:P20309", "Result Units": "nM", "Relation Operator": "<", "Assay Value": 10}
{"Compound": "OCCC[N+]12CCC(C(O)(c3ccccc3)c3ccccc3)(CC1)CC2", "Target Or System": "UniProt:P20309", "Result Units": "nM", "Relation Operator": "=", "Assay Value": 29500}
{"Compound": "COCCC[N+]12CCC(C(O)(c3ccccc3)c3ccccc3)(CC1)CC2", "Target Or System": "UniProt:P20309", "Result Units": "nM", "Relation Operator": "=", "Assay Value": 829}
{"Compound": "Cc1cccc(COCC[N+]23CCC(C(O)(c4ccccc4)c4ccccc4)(CC2)CC3)c1", "Target Or System": "UniProt:P20309", "Result Units": "nM", "Relation Operator": "<", "Assay Value": 10}
{"Compound": "NCC[N+]12CCC(C(O)(c3ccccc3)c3ccccc3)(CC1)CC2", "Target Or System": "UniProt:P20309", "Result Units": "nM", "Relation Operator": "=", "Assay Value": 850}
{"Compound": "CCCC[N+]12CCC(C(O)(c3ccccc3)c3ccccc3)(CC1)CC2", "Target Or System": "UniProt:P20309", "Result Units": "nM", "Relation Operator": "=", "Assay Value": 135}
{"Compound": "CC[N+]12CCC(C(O)(c3ccccc3)c3ccccc3)(CC1)CC2", "Target Or System": "UniProt:P20309", "Result Units": "nM", "Relation Operator": "=", "Assay Value": 104}
{"Compound": "OC(c1ccccc1)(c1ccccc1)C12CC[N+](CCCCc3ccccc3)(CC1)CC2", "Target Or System": "UniProt:P20309", "Result Units": "nM", "Relation Operator": "<", "Assay Value": 10}
{"Compound": "N#Cc1ccccc1COCC[N+]12CCC(C(O)(c3ccccc3)c3ccccc3)(CC1)CC2", "Target Or System": "UniProt:P20309", "Result Units": "nM", "Relation Operator": "=", "Assay Value": 5400}
{"Compound": "OC(c1ccccc1)(c1ccccc1)C12CC[N+](CCOCc3cccc(F)c3)(CC1)CC2", "Target Or System": "UniProt:P20309", "Result Units": "nM", "Relation Operator": "<", "Assay Value": 10}
{"Compound": "COCC[N+]12CCC(C(O)(c3ccccc3)c3ccccc3)(CC1)CC2", "Target Or System": "UniProt:P20309", "Result Units": "nM", "Relation Operator": "=", "Assay Value": 30}

----------
Biological target: Muscarinic acetylcholine receptor M3 (Homo sapiens, UniProt P20309)
Sequence (P20309 whole entry): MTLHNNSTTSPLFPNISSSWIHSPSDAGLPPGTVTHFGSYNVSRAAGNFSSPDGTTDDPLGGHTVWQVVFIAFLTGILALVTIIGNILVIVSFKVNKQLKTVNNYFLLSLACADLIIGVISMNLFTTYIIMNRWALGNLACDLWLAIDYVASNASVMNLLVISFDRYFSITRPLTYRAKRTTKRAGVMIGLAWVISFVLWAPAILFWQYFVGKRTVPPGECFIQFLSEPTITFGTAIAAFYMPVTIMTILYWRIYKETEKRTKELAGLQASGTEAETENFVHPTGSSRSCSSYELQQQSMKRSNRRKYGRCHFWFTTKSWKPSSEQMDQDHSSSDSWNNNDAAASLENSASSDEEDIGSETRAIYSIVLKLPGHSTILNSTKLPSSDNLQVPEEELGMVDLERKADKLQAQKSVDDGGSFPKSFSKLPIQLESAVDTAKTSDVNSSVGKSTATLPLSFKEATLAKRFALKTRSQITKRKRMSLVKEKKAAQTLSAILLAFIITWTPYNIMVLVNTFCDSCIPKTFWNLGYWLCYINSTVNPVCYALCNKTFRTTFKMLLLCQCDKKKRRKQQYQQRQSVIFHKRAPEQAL
Assay: Antagonist activity at human cloned muscarinic M3 receptor expressed in CHO cells assessed as inhibition of acetylcholine-induced calcium mobilization by FLIPR assay
pIC50: −log10 of the molar value.
Assign Criterion met to entries whose pIC50 meets or exceeds 7; assign Criterion not met to the rest.

{"Compound": "Cc1ccccc1COCC[N+]12CCC(C(O)(c3ccccc3)c3ccccc3)(CC1)CC2", "Label Class": "Criterion met"}
{"Compound": "OC(c1ccccc1)(c1ccccc1)C12CC[N+](CCOCc3ccccc3)(CC1)C2", "Label Class": "Criterion met"}
{"Compound": "OC(c1ccccc1)(c1ccccc1)C1CN2CCC1CC2 (stereo not given)", "Label Class": "Criterion not met"}
{"Compound": "OC(c1cccc(F)c1)(c1cccc(F)c1)C12CC[N+](CCOCc3ccccc3)(CC1)CC2", "Label Class": "Criterion met"}
{"Compound": "N#Cc1ccc(COCC[N+]23CCC(C(O)(c4ccccc4)c4ccccc4)(CC2)CC3)cc1", "Label Class": "Criterion met"}
{"Compound": "OC(c1ccc(F)cc1)(c1ccc(F)cc1)C12CC[N+](CCOCc3ccccc3)(CC1)CC2", "Label Class": "Criterion met"}
{"Compound": "OCC[N+]12CCC(C(O)(c3ccccc3)c3ccccc3)(CC1)CC2", "Label Class": "Criterion not met"}
{"Compound": "OC(c1ccccc1)(c1ccccc1)C12CC[N+](CCOCc3ccccc3F)(CC1)CC2", "Label Class": "Criterion met"}
{"Compound": "C[N+]12CCC(C(O)(c3ccccc3)c3ccccc3)(CC1)CC2", "Label Class": "Criterion not met"}

----------
Target: Muscarinic acetylcholine receptor M3 (Homo sapiens)
Test: Antagonist activity at human cloned muscarinic M3 receptor expressed in CHO cells assessed as inhibition of acetylcholine-induced calcium mobilization by FLIPR assay
The label y is reserved for IC50 strictly under 300 nM; n covers values equal to or above it.

{"Compound": "OC(c1ccccc1)(c1ccccc1)C12CC[N+](CCOCc3ccc(F)cc3)(CC1)CC2", "Target Or System": "Muscarinic acetylcholine receptor M3 (Homo sapiens)", "Label Class": "y"}
{"Compound": "OC(c1ccccc1)(c1ccccc1)C12CC[N+](CCOCc3ccccc3Br)(CC1)CC2", "Target Or System": "Muscarinic acetylcholine receptor M3 (Homo sapiens)", "Label Class": "y"}
{"Compound": "OC(c1ccccc1)(c1ccccc1)C12CC[N+](CCCCOc3ccccc3)(CC1)CC2", "Target Or System": "Muscarinic acetylcholine receptor M3 (Homo sapiens)", "Label Class": "y"}
{"Compound": "OC(CC1CN2CCC1CC2)(c1ccccc1)c1ccccc1 (stereo not drawn)", "Target Or System": "Muscarinic acetylcholine receptor M3 (Homo sapiens)", "Label Class": "y"}
{"Compound": "OC(c1ccccc1)(c1ccccc1)C1CC2CCN1CC2 (stereo not drawn)", "Target Or System": "Muscarinic acetylcholine receptor M3 (Homo sapiens)", "Label Class": "n"}
{"Compound": "COc1cccc(COCC[N+]23CCC(C(O)(c4ccccc4)c4ccccc4)(CC2)CC3)c1", "Target Or System": "Muscarinic acetylcholine receptor M3 (Homo sapiens)", "Label Class": "y"}
{"Compound": "CC(C)(C)c1ccc(COCC[N+]23CCC(C(O)(c4ccccc4)c4ccccc4)(CC2)CC3)cc1", "Target Or System": "Muscarinic acetylcholine receptor M3 (Homo sapiens)", "Label Class": "y"}
{"Compound": "N#CC(c1ccccc1)(c1ccccc1)C12CC[N+](CCOCc3ccccc3)(CC1)C2", "Target Or System": "Muscarinic acetylcholine receptor M3 (Homo sapiens)", "Label Class": "y"}
{"Compound": "OC(c1ccccc1)(c1ccccc1)C12CCN(CC1)CC2", "Target Or System": "Muscarinic acetylcholine receptor M3 (Homo sapiens)", "Label Class": "n"}
{"Compound": "OC(c1ccccc1)(c1ccccc1)C12CC[N+](CCOCc3ccc(Cl)cc3)(CC1)CC2", "Target Or System": "Muscarinic acetylcholine receptor M3 (Homo sapiens)", "Label Class": "y"}
{"Compound": "OC(c1ccccc1)(c1ccccc1)C12CC[N+](CCOCc3ccc(Br)cc3)(CC1)CC2", "Target Or System": "Muscarinic acetylcholine receptor M3 (Homo sapiens)", "Label Class": "y"}
{"Compound": "COc1cccc(C(O)(c2cccc(OC)c2)C23CC[N+](CCOCc4ccccc4)(CC2)CC3)c1", "Target Or System": "Muscarinic acetylcholine receptor M3 (Homo sapiens)", "Label Class": "y"}
